target: hBuChE (Homo sapiens, UniProt P06276); construct: purchased Sigma Aldrich; test: hBuChE inhibition, Ellman's method; assay type: biochemical; settings: hBuChE from human serum; mean ± SD of three experiments; read-out: IC50 hBuChE
Sequence (P06276 29-602): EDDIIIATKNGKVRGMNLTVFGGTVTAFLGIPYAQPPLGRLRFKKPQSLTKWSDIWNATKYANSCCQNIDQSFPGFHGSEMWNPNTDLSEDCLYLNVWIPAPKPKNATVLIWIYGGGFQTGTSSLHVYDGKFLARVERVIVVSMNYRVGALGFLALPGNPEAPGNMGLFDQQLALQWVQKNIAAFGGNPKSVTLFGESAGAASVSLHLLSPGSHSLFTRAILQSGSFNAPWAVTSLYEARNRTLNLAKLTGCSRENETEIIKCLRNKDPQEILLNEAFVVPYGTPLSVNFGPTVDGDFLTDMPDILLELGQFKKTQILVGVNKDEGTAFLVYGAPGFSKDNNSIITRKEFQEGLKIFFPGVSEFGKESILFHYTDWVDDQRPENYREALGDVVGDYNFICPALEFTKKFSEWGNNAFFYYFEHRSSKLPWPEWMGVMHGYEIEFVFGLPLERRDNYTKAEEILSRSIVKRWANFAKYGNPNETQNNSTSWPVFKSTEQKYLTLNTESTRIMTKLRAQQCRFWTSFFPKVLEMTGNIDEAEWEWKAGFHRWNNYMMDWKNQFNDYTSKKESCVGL
pIC50: −log10 of the molar value.
measured.quantity: pIC50

Solved entries:
## Task Entry under review: CC1(C)CC[C@]2(C(=O)NCCNc3c4c(nc5cc(Br)ccc35)CCCC4)CC[C@]3(C)C(=CCC4[C@@]5(C)CC[C@H](O)C(C)(C)C5CC[C@]43C)C2C1 (stereo partly drawn) [Compound D1] . Reported pIC50?
## Result < 5.00

## Task Again, but for CC1(C)CC[C@]2(C(=O)NCCNc3c4c(nc5cc(F)ccc35)CCCC4)CC[C@]3(C)C(=CCC4[C@@]5(C)CC[C@H](O)C(C)(C)C5CC[C@]43C)C2C1 (stereo partly drawn)
## Result < 5.00

Next:
## Task Entry under review: CC1(C)CC[C@]2(C(=O)NCCCCCNc3c4c(nc5c(F)cccc35)CCCC4)CC[C@]3(C)C(=CCC4[C@@]5(C)CC[C@H](O)C(C)(C)C5CC[C@]43C)C2C1 (stereo partly drawn) . Reported pIC50?
## Result 5.79

---

target: hAChE (Homo sapiens); construct: purchased Sigma Aldrich; test: biochemical
pIC50: −log10 of the molar value.
measured.quantity: pIC50

Solved entries:
## Task Entry under review: CC1(C)CC[C@]2(C(=O)NCCCCCNc3c4c(nc5c(F)cccc35)CCCC4)CC[C@]3(C)C(=CCC4[C@@]5(C)CC[C@H](O)C(C)(C)C5CC[C@]43C)C2C1 (some centres unmarked) . Reported pIC50?
## Result < 5.00

## Task Again, but for CC1(C)CC[C@]2(C(=O)NCCCNc3c4c(nc5cc(F)ccc35)CCCC4)CC[C@]3(C)C(=CCC4[C@@]5(C)CC[C@H](O)C(C)(C)C5CC[C@]43C)C2C1 (some centres unmarked)
## Result < 5.00

## Task Again, but for CC1(C)CC[C@]2(C(=O)NCCNc3c4c(nc5c(Cl)cccc35)CCCC4)CC[C@]3(C)C(=CCC4[C@@]5(C)CC[C@H](O)C(C)(C)C5CC[C@]43C)C2C1 (some centres unmarked)
## Result < 5.00

## Task Again, but for CC1(C)CC[C@]2(C(=O)NCCNc3c4c(nc5cc(F)ccc35)CCCC4)CC[C@]3(C)C(=CCC4[C@@]5(C)CC[C@H](O)C(C)(C)C5CC[C@]43C)C2C1 (some centres unmarked)
## Result < 5.00

## Task Again, but for CC1(C)CC[C@]2(C(=O)NCCCNc3c4c(nc5c(Cl)cccc35)CCCC4)CC[C@]3(C)C(=CCC4[C@@]5(C)CC[C@H](O)C(C)(C)C5CC[C@]43C)C2C1 (some centres unmarked)
## Result < 5.00

Let us move to another entry and its pIC50.
## Task Entry under review: CC1(C)CC[C@]2(C(=O)NCCCNc3c4c(nc5c(F)cccc35)CCCC4)CC[C@]3(C)C(=CCC4[C@@]5(C)CC[C@H](O)C(C)(C)C5CC[C@]43C)C2C1 (some centres unmarked) . Reported pIC50?
## Result < 5.00

---

molecular target: hAChE (Homo sapiens, UniProt P22303); construct: purchased Sigma Aldrich; experiment: biochemical
Sequence (P22303 32-614): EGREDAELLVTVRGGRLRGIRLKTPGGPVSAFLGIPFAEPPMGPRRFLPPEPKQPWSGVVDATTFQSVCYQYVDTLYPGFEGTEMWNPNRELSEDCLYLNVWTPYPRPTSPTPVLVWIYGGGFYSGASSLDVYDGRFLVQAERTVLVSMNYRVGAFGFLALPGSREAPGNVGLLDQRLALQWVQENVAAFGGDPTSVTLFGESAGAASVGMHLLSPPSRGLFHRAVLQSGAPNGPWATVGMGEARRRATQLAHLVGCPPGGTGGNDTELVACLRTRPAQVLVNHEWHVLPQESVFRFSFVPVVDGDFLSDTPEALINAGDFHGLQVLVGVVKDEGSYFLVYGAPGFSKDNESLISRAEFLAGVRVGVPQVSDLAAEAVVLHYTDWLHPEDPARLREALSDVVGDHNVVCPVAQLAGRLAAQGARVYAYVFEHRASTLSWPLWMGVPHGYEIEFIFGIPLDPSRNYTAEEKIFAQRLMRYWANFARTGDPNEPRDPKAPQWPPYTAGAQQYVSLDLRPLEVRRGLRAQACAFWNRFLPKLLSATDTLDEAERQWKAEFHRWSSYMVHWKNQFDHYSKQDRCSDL
measured.quantity: SI (selectivity index, hBuChE/hAChE)

## Task Entry under review: CC1(C)CC[C@]2(C(=O)NCCCCCCNc3c4c(nc5cc(Cl)ccc35)CCCC4)CC[C@]3(C)C(=CCC4[C@@]5(C)CC[C@H](O)C(C)(C)C5CC[C@]43C)C2C1 (some centres unmarked) . Reported SI (selectivity index, hBuChE/hAChE)?
## Result >695.89

## Task Again, but for CC1(C)CC[C@]2(C(=O)NCCCNc3c4c(nc5c(F)cccc35)CCCC4)CC[C@]3(C)C(=CCC4[C@@]5(C)CC[C@H](O)C(C)(C)C5CC[C@]43C)C2C1 (some centres unmarked)
## Result <0.09

## Task Again, but for CC1(C)CC[C@]2(C(=O)NCCCCCCNc3c4c(nc5c(F)cccc35)CCCC4)CC[C@]3(C)C(=CCC4[C@@]5(C)CC[C@H](O)C(C)(C)C5CC[C@]43C)C2C1 (some centres unmarked)
## Result <0.38

## Task Again, but for CC1(C)CC[C@]2(C(=O)NCCCCCNc3c4c(nc5c(F)cccc35)CCCC4)CC[C@]3(C)C(=CCC4[C@@]5(C)CC[C@H](O)C(C)(C)C5CC[C@]43C)C2C1 (some centres unmarked)
## Result <0.16

## Task Again, but for CC1(C)CC[C@]2(C(=O)NCCCCCNc3c4c(nc5ccccc35)CCCC4)CC[C@]3(C)C(=CCC4[C@@]5(C)CC[C@H](O)C(C)(C)C5CC[C@]43C)C2C1 (some centres unmarked)
## Result 3.59
